Tested on: rodent lifetime carcinogenesis bioassay, tumor incidence TD50
Test: carcinogenic potency in animals, long-term in vivo studies, CPDB compilation (AID 1745844)
Details: rat; strain Fischer 344; males; in feed; site: liver; lesion: hepatocellular carcinoma + neoplastic nodule; dosed 104 weeks; study length 104 weeks
readout-name: TD50

| molecule | assay-target | value |
| --- | --- | --- |
| ClC1(Cl)C2(Cl)C3(Cl)C4(Cl)C(Cl)(Cl)C5(Cl)C3(Cl)C1(Cl)C5(Cl)C24Cl (stereo unspecified) | rodent lifetime carcinogenesis bioassay, tumor incidence TD50 | 0.825 mg/kg/day |

###

System: rodent lifetime carcinogenesis bioassay, tumor incidence TD50
Assay: carcinogenic potency in animals, long-term in vivo studies, CPDB compilation (AID 1745844)
Details: mouse; strain B6C3F1; females; oral dosing; site: lung; lesion: adenoma; dosed 83 weeks; study length 83 weeks

| smiles-str | TD50 |
| --- | --- |
| CC(C)N(C(=O)SCC(Cl)=CCl)C(C)C | 255 mg/kg/day |

###

Tested on: rodent lifetime carcinogenesis bioassay, tumor incidence TD50
Assay: carcinogenic potency in animals, long-term in vivo studies, CPDB compilation (AID 1745844)
Conditions: mouse; strain Charles River CD1; males; inhaled; site: liver; lesion: hepatocellular adenoma; dosed 78 weeks; study length 78 weeks
readout-name: TD50 (mg/kg/day)

| smiles-str | unit-of-measure | value |
| --- | --- | --- |
| CCC(C)=NO | mg/kg/day | 1460 |

###

Tested on: rodent lifetime carcinogenesis bioassay, tumor incidence TD50
Assay: carcinogenic potency in animals, long-term in vivo studies, CPDB compilation (AID 1745844)
Settings: rat; strain Fischer 344; males; in drinking water; site: tongue; lesion: basal-cell carcinoma; dosed 50 weeks; study length 125 weeks

| smiles-str | TD50 |
| --- | --- |
| O=NN1CCCCCCC1 | 0.171 mg/kg/day |

###

Tested on: rodent lifetime carcinogenesis bioassay, tumor incidence TD50
Test: carcinogenic potency in animals, long-term in vivo studies, CPDB compilation (AID 1745844)
Conditions: rat; strain Fischer 344; females; by gavage; site: liver; lesion: hepatocellular carcinoma; dosed 30 weeks; study length 95 weeks

| smiles-str | assay-target | TD50 |
| --- | --- | --- |
| CC(=O)CN(CC(C)=O)N=O | rodent lifetime carcinogenesis bioassay, tumor incidence TD50 | 0.684 mg/kg/day |

###

Test system: rodent lifetime carcinogenesis bioassay, tumor incidence TD50
Experiment: carcinogenic potency in animals, long-term in vivo studies, CPDB compilation (AID 1745844)
Conditions: mouse; strain CDF1; females; in feed; site: liver; lesion: several types; types named in the paper; dosed 91 weeks; study length 91 weeks

| smiles-str | TD50 |
| --- | --- |
| Cc1cc2ncccc2c2nc(N)n(C)c12 | 27.1 mg/kg/day |

###

Test system: rodent lifetime carcinogenesis bioassay, tumor incidence TD50
Test: carcinogenic potency in animals, long-term in vivo studies, CPDB compilation (AID 1745844)
Settings: mouse; strain Swiss albino; males; in drinking water; site: liver; lesion: hepatoma; dosed 113 weeks; study length 113 weeks
Calls of active or inactive are those of the source. How the calls were made is not given here.

| smiles-str | TD50 |
| --- | --- |
| O=C(O)c1ccccc1 | 133000 mg/kg/day (inactive) |

###

System: rodent lifetime carcinogenesis bioassay, tumor incidence TD50
Test: carcinogenic potency in animals, long-term in vivo studies, CPDB compilation (AID 1745844)
Settings: mouse; strain C3HeB/FeJ; females; in feed; site: liver; lesion: several types; types named in the paper; dosed 104 weeks; study length 104 weeks
Activity calls are given as the source filed them. No rule for the calls is given here.
readout-name: TD50

| smiles-str | readout-name | value |
| --- | --- | --- |
| CCN(Cc1cccc(S(=O)(=O)O)c1)c1ccc(C(=C2C=CC(=[N+](CC)Cc3cccc(S(=O)(=O)[O-])c3)C=C2)c2ccccc2)cc1 | TD50 | 146000 mg/kg/day (inactive) |

The measured values listed here are drawn from PubChem BioAssay AID1745844.
